Recorded peptide exchange yield values for a group of binders are listed next.
- targetSystem: T1, HLA-A*01:01 (human)
- T1 construct: Peptide-receptive MHC class I monomer after UV cleavage of a UV-sensitive ligand; captured on streptavidin plates, detected with anti-b2m
- assayComment: UV-ligand exchange, anti-b2m ELISA; peptide exchange yield grade

[
  {
    "binder": "EVEGVIDGTYDY",
    "peptide exchange yield": "≥ 75%"
  },
  {
    "binder": "GTDKQDSTLRY",
    "peptide exchange yield": "≥ 75%"
  },
  {
    "binder": "LTEVEKDATALY",
    "peptide exchange yield": "≥ 75%"
  },
  {
    "binder": "VTQDDTGFY",
    "peptide exchange yield": "≥ 75%"
  },
  {
    "binder": "TANYDTSHY",
    "peptide exchange yield": "20 to 50%"
  },
  {
    "binder": "RSLDCTVKTY",
    "peptide exchange yield": "50 to 75%"
  },
  {
    "binder": "ITDDTVQTY",
    "peptide exchange yield": "≥ 75%"
  },
  {
    "binder": "GVDDTSLLY",
    "peptide exchange yield": "≥ 75%"
  }
]
